Tested on: NCI-H1993 (Lung Adenocarcinoma)
Assay: combination Emax (second highest fraction inhibited in the dose matrix, 72 h); higher = more inhibition; extreme values may be limits of the assay
quantity.kind: combination Emax

molecule="N#Cc1cnc(Nc2cc(NC[C@H]3CNCCO3)c(C(F)(F)F)cn2)cn1 [SRA737] + O=c1[nH]cc(F)c(=O)[nH]1 [5-Fluorouracil] (first compound max 10 µM, 7x7, partner max 20 µM)" quantity_kind="combination Emax" value_reported=0.76
molecule="CC1(C)CCC(CN2CCN(c3ccc(C(=O)NS(=O)(=O)c4ccc(NCC5CCOCC5)c([N+](=O)[O-])c4)c(Oc4cnc5[nH]ccc5c4)c3)CC2)=C(c2ccc(Cl)cc2)C1 [Venetoclax] + CCN(CCO)CCCOc1ccc2c(Nc3cc(CC(=O)Nc4cccc(F)c4)[nH]n3)ncnc2c1 [AZD2811] (first compound max 1 µM, 7x7, partner max 1 µM)" quantity_kind="combination Emax" value_reported=0.232
molecule="C[C@@H]1COCCN1c1cc(C2([S@](C)(=N)=O)CC2)nc(-c2ccnc3[nH]ccc23)n1 [AZD6738] + O=C(c1cc(Cc2n[nH]c(=O)c3ccccc23)ccc1F)N1CCN(C(=O)C2CC2)CC1 [Olaparib] (first compound max 10 µM, 7x7, partner max 10 µM)" quantity_kind="combination Emax" value_reported=0.549
molecule="Cc1cc2ncnn2cc1Nc1ncc2c(n1)n(C1CCOCC1)c(=O)n2C [AZD7648] + CN(C)CCCOc1ccc(-c2ccc3ncc4c(c3c2)n(C2CCOCC2)c(=O)n4C)cn1 [AZD0156] (first compound max 10 µM, 7x7, partner max 1 µM)" quantity_kind="combination Emax" value_reported=0.517
molecule="N#Cc1cnc(Nc2cc(NC[C@H]3CNCCO3)c(C(F)(F)F)cn2)cn1 [SRA737] + C=CCn1c(=O)c2cnc(Nc3ccc(N4CCN(C)CC4)cc3)nc2n1-c1cccc(C(C)(C)O)n1 [AZD1775] (first compound max 10 µM, partner max 1 µM)" quantity_kind="combination Emax" value_reported=0.88
molecule="Cc1c2c(nn1C)CSCc1cc(n(C)n1)CSc1cc(c3ccccc3c1)OCCCc1c(C(=O)O)n(C)c3c-2c(Cl)ccc13 [AZD5991] + CS(=O)(=O)CCNCc1ccc(-c2ccc3ncnc(Nc4ccc(OCc5cccc(F)c5)c(Cl)c4)c3c2)o1 [Lapatinib] (first compound max 1 µM, 7x7, partner max 10 µM)" quantity_kind="combination Emax" value_reported=0.433
molecule="CC1(C)CCC(CN2CCN(c3ccc(C(=O)NS(=O)(=O)c4ccc(NCC5CCOCC5)c([N+](=O)[O-])c4)c(Oc4cnc5[nH]ccc5c4)c3)CC2)=C(c2ccc(Cl)cc2)C1 [Venetoclax] + C1CN(CCC1(C(=O)N[C@@H](CCO)C2=CC=C(C=C2)Cl)N)C3=NC=NC4=C3C=CN4 [Capivasertib] (first compound max 1 µM, 7x7, partner max 3 µM)" quantity_kind="combination Emax" value_reported=0.5
